# Tested on: ISC-enriched organoids
# method: Primary screen, 384-well 2.5-D organoid differentiation (ENR+CD, 6 days, Target Selective Inhibitor Library, vs whole-plate median): ATP (CellTiter-Glo 3D, CTG)
# cond: Dose 10.00 uM; standard z score of FC
Classification field: enter Met for Z.CTG values not below -0.9, Not met for values below it.

# count of solved cases: 5
Check the entry CCN(CC)CCCC(C)Nc1nc(C)cc(Nc2ccc3nc(C)cc(N)c3c2)n1 (centres unmarked) [NSC 23766] : does Z.CTG equal or exceed -0.9? Met

Input CCOc1ccccc1-n1c(C(C)N2CCN(C(=O)COc3ccc(Cl)cc3)CC2)nc2ccccc2c1=O (centres unmarked) [Erastin] Met

What do you have for C[C@]1(O)C[C@@H](c2nc(-c3ccc4ccc(-c5ccccc5)nc4c3)c3c(N)nccn32)C1 [OSI-906 (Linsitinib)] ? Not met

Now the molecule CCc1cncnc1N1CCN(Cc2nc3ccc(C(F)(F)F)cc3[nH]2)CC1 [PF-4708671] Met

// repeat for Cc1[nH]c2ccccc2c1CCNCc1ccc(/C=C/C(=O)NO)cc1 [Panobinostat (LBH589)] and report Not met

Continuing:
Decide: is the reported value of Z.CTG for CC(C)C[C@H](NC(=O)[C@@H](NC(=O)c1cccc(-c2ccccc2)n1)[C@@H](C)O)B(O)O [CEP-18770 (Delanzomib)] equal to or greater than -0.9? Not met

Okay, and NCC(=O)Nc1ccc(-n2nc(C(F)(F)F)cc2-c2ccc3c(ccc4ccccc43)c2)cc1 [OSU-03012 (AR-12)] ? Met

Continue with O=C(N/N=C/c1ccc(O)c(O)c1)c1cc2ccccc2cc1O [Dynasore] Met
